Recorded MIC for the following substances
# Tested on: S. aureus ATCC 33593
# CONDITION_SET: LYM broth, 300 mM (NaCl); 16 h, 37 °C

| SUBSTANCE | MIC |
| --- | --- |
| Ac-LKWLAKKKKWRKW-NH2 [Peptide W5K06] | >50 µg/mL |
| Ac-LAKKKKWRKWLKW-NH2 [Peptide W5K09] | >50 µg/mL |
| Ac-KWLKWLAKKKKWR-NH2 [Peptide W5K04] | >50 µg/mL |

----------
# System: Gram-negative bacteria
# MEASUREMENT_DESCRIPTION: Geometric mean MIC and therapeutic index, Gram-negative bacteria
# Assay type: cell-based
# CONDITION_SET: HC10/GM, Gram-negative bacteria
Here the recorded Therapeutic Index (TI) G− is given for each entry.
READOUT: Therapeutic Index (TI) G−

| SUBSTANCE | NUMERIC_RESULT |
| --- | --- |
| Ac-WLAKKKKWRKWLK-NH2 [Peptide W5K08] | 2.2 |
| Ac-LKWLAKKKKWRKW-NH2 [Peptide W5K06] | 2.5 |
| Ac-KWRKWLKWLAKKK-NH2 [Peptide W5K01] | 8.6 |
| Ac-RKWLKWLAKKKKW-NH2 [Peptide W5K03] | 6.6 |
| Ac-KWLAKKKKWRKWL-NH2 [Peptide W5K07] | 5.0 |
| Ac-KKWRKWLKWLAKK-NH2 [W5K/A9W] | 14.5 |
| Ac-AKKKKWRKWLKWL-NH2 [Peptide W5K10] | 34.8 |
| Ac-WLKWLAKKKKWRK-NH2 [Peptide W5K05] | 8.7 |
| Ac-KKKKWRKWLKWLA-NH2 [Peptide W5K11] | 34.5 |
